Method description: Mouse blood levels after oral administration
Format: in vivo
Condition parameters: blood, oral, 100 mg./kg., 120 minutes after administration, read-out: Blood Level
Parameter measured: concentration at 2 h

// sample CC1=C(C(=O)O)N2C(=O)C[C@H]2S1 (racemic) [d,l-2-methylpenem-3-carboxylic acid, 2-Methylpenem-3-carboxylic Acid] , its concentration at 2 h was < 4300 ng/mL

====

Method description: Mouse blood levels after oral administration
Format: in vivo
Condition parameters: blood, oral, 100 mg./kg., 30 minutes after administration, read-out: Blood Level
Parameter measured: concentration at 0.5 h (µg/mL)
The response must be a number in µg/mL with no trailing unit.

In plain terms, CC1(C)S[C@@H]2[C@H](NC(=O)[C@H](N)c3ccc(O)cc3)C(=O)N2[C@H]1C(=O)O has a documented concentration at 0.5 h of 14

====

Method description: Mouse blood levels after oral administration
Type: in vivo
Condition parameters: in vivo, po, 100 mg/kg
Parameter measured: concentration at 5 min (µg/mL)
Numeric only. Scale: µg/mL

The compound listed as CC1(C)S[C@@H]2[C@H](NC(=O)[C@H](N)c3ccccc3)C(=O)N2[C@H]1C(=O)O [Ampicillin] has a reported concentration at 5 min of 2.1

====

Method description: Mouse blood levels after oral administration
Format: in vivo
Condition parameters: in vivo, po, 100 mg/kg
Parameter measured: concentration at 2 h (ng/mL)
Please state the figure in ng/mL; there is no need to write the unit.

Documented concentration at 2 h of CC1(C)S[C@@H]2[C@H](NC(=O)[C@H](N)c3ccccc3)C(=O)N2[C@H]1C(=O)O : 2800

====

Each entry below carries its reported concentration at 5 min.
Method description: Mouse blood levels after oral administration
Format: in vivo
Condition parameters: blood, oral, 100 mg./kg., 5 minutes after administration, read-out: Blood Level
Only the number, expressed in ng/mL, is required.

Compound	Parameter measured	Units label	Test value
CC1(C)S[C@@H]2[C@H](NC(=O)[C@H](N)c3ccc(O)cc3)C(=O)N2[C@H]1C(=O)O	concentration at 5 min	ng/mL	1500

Let us examine a further case.
The recorded concentration at 5 min for CC1=C(C(=O)O)N2C(=O)C[C@H]2S1 (racemic) is 28000

====

Method description: Mouse blood levels after oral administration
Type: in vivo
Condition parameters: in vivo, po, 100 mg/kg
From the text: Blood level values represent averages of 4 experiments for d,l-2-methylpenem-3-carboxylic acid, 3 for ampicillin and 1 for Assay Organism: Bacillus megaterium A-9737
Parameter measured: concentration at 10 min
Kindly report the value followed by its unit.

Value of measured concentration at 10 min for the entry CC1(C)S[C@@H]2[C@H](NC(=O)[C@H](N)c3ccccc3)C(=O)N2[C@H]1C(=O)O : 3900 ng/mL

====

Method description: Mouse blood levels after oral administration
Assay type: in vivo
Condition parameters: blood, oral, 100 mg./kg., 15 minutes after administration, read-out: Blood Level
Excerpt: Blood level values represent averages of 4 experiments for d,l-2-methylpenem-3-carboxylic acid, 3 for ampicillin and 1 for Assay Organism: Bacillus megaterium A-9737
Parameter measured: concentration at 0.25 h (ng/mL)
Answer format: numeric, ng/mL implied, no suffix.

Molecule	concentration at 0.25 h, ng/mL
CC1=C(C(=O)O)N2C(=O)C[C@H]2S1 (racemic)	18400

Documented concentration at 0.25 h of CC1(C)S[C@@H]2[C@H](NC(=O)[C@H](N)c3ccc(O)cc3)C(=O)N2[C@H]1C(=O)O : 9900
